Can you tell me inhibition at 50 µM for the items I'm about to list?
# Target of assay: Tau protein aggregation (Homo sapiens, UniProt P10636)
# Construct: For the cloning and overexpression of full-length tau protein; expressed in transfected cells; host or cells: E. coli BL21 (DE3) carrying pTARA and pRKT42
# Sequence (P10636 other isoform, or with tags, fused parts or gaps): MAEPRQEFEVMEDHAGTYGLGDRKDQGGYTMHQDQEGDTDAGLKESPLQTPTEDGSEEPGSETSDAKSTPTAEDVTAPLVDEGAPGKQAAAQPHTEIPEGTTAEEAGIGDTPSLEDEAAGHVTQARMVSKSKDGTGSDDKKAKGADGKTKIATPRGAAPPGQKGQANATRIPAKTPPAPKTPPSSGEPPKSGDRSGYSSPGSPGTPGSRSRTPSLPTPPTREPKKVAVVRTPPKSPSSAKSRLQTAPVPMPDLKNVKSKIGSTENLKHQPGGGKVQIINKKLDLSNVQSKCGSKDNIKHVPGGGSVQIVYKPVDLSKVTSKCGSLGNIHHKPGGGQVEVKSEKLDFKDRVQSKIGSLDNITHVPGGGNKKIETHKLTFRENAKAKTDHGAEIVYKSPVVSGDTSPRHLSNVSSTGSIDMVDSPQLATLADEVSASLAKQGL
# Measurement description: Thioflavin S assay of tau protein aggregation in E. coli cells overexpressing tau
# Type: cell-based, Escherichia coli
# Particulars: read-out: Tau inhibition %
Numbers only, in %.

COc1ccc2c(=O)c3cc4c(cc3oc2c1)-c1cc(Cl)ccc1OC4 [Compound 11r] | 61.3
O=c1c2ccccc2oc2cc3c(cc12)COc1ccc(F)cc1-3 [Compound 11i] | 52
COc1ccc2c(=O)c3cc4c(cc3oc2c1)-c1c(ccc2ccccc12)OC4 [Compound 12b] | 57
O=c1c2ccccc2oc2cc3c(cc12)COc1c(Br)cc(Cl)cc1-3 [Compound 11k] | 52
COc1ccc2c(=O)c3cc4c(cc3oc2c1)-c1cc(Cl)cc(Br)c1OC4 [Compound 11s] | 58

Consider the record given below.
Quick check: inhibition at 50 µM of COc1ccc2c(=O)c3cc4c(cc3oc2c1)-c1cc(F)ccc1OC4 [Compound 11q] ?
55

###

Can you tell me Papp at 2.5 h for the items I'm about to list?
# Measurement description: in vitro
# Particulars: pig, PAMPA, pH 7.4

Solved cases (3 shown):
CN1C(C(=O)Nc2ccccn2)=C(O)c2ccccc2S1(=O)=O [Piroxicam, reference compound] | 0.19 ×10⁻⁶ cm/s
O=c1c2ccccc2oc2cc3c(cc12)COc1c(Br)cc(Cl)cc1-3 [Compound 11k] | 2.3 ×10⁻⁶ cm/s
COc1ccc2c(=O)c3cc4c(cc3oc2c1)-c1cc(Cl)ccc1OC4 [Compound 11r] | 7.12 ×10⁻⁶ cm/s

Please supply Papp at 2.5 h for each of the following items, keeping them in order.
1. CNCCCN1c2ccccc2CCc2ccccc21 [Desipramine, reference compound]
2. COc1ccc2c(=O)c3cc4c(cc3oc2c1)-c1cc(F)ccc1OC4 [Compound 11q]
3. COc1ccc2c(=O)c3cc4c(cc3oc2c1)-c1cc(Cl)cc(Br)c1OC4 [Compound 11s]
4. C#CCN(CC#C)c1ccccc1/C=C/c1cc(=O)c2ccccc2o1 [Compound 10]
5. CCn1cc(C(=O)O)c(=O)c2cc(F)c(N3CCNCC3)nc21 [Enoxacin, reference compound]

1. 15.6 ×10⁻⁶ cm/s
2. 6.04 ×10⁻⁶ cm/s
3. 8.7 ×10⁻⁶ cm/s
4. 11.6 ×10⁻⁶ cm/s
5. 0.15 ×10⁻⁶ cm/s

###

Can you tell me inhibition at 50 µM for the items I'm about to list?
# Target of assay: Aβ42 aggregation (Homo sapiens, UniProt P05067)
# Construct: expressed in transfected cells; host or cells: E. coli BL21 (DE3), pET vector
# Sequence (P05067 672-713): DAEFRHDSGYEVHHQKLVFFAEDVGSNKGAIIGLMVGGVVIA
# Measurement description: Thioflavin S assay of Aβ42 aggregation in E. coli cells overexpressing Aβ42
# Type: cell-based, Escherichia coli
# Particulars: read-out: Aβ42 inhibition %
One number for each entry, in %.

Solved cases (4 shown):
C#CCOc1ccc2ccccc2c1/C=C/c1cc(=O)c2ccccc2o1 | 47
C#CCOc1c(Br)cc(Cl)cc1/C=C/c1cc(=O)c2ccccc2o1 | 24
C#CCOc1ccccc1/C=C/c1cc(=O)c2c(OC)cc(OC)cc2o1 | 24
N#CCOc1ccccc1/C=C/c1cc(=O)c2ccccc2o1 | 34

Please supply inhibition at 50 µM for each of the following items, keeping them in order.
1. C#CCOc1ccc(OC)cc1/C=C/c1cc(=O)c2c(OC)cc(OC)cc2o1
2. COc1cccc2oc3cc4c(cc3c(=O)c12)COc1ccccc1-4 [Compound 11c]
3. C#CCOc1ccc(F)cc1/C=C/c1cc(=O)c2ccccc2o1
4. O=c1c2ccccc2oc2cc3c(cc12)COc1ccc(Br)cc1-3 [Compound 11g]
5. C#CCOc1ccc(OC)cc1/C=C/c1cc(=O)c2ccc(OC)cc2o1
6. COc1ccc2c(=O)c3cc4c(cc3oc2c1)-c1cc(Cl)ccc1OC4 [Compound 11r]
7. C#CCOc1ccc(Cl)cc1/C=C/c1cc(=O)c2ccc(OC)cc2o1

50
34
22
36
11
57
17

Please supply inhibition at 50 µM for each of the following items, keeping them in order.
1. O=c1c2ccccc2oc2cc3c(cc12)COc1c(Br)cc(Cl)cc1-3 [Compound 11k]
2. O=c1c2ccccc2oc2cc3c(cc12)COc1ccc(F)cc1-3 [Compound 11i]
3. C#CCOc1ccc(Br)cc1/C=C/c1cc(=O)c2ccccc2o1
4. C#CCOc1ccc(F)cc1/C=C/c1cc(=O)c2ccc(OC)cc2o1
5. COc1ccc2c(=O)c3cc4c(cc3oc2c1)-c1c(ccc2ccccc12)OC4 [Compound 12b]
6. O=c1c2ccccc2oc2cc3c(cc12)COc1ccccc1-3 [Compound 11a, 6H,8H-Chromeno[3,4-b]xanthen-8-one]
7. C#CCOc1ccccc1/C=C/c1cc(=O)c2ccc(OC)c(OC)c2o1

[46, 47, 25, 28, 54, 15, 28]
